- test system: HIV RRE RNA (AP-RRE RNA)
- Assay type: binding
- protocol conditions: high-affinity RRE RNA site, 37° C., pH 7.4; read-out: KD1
pKd: −log10 of the molar value.
Below, each entry is listed with its recorded pKd.
readout label: pKd

[
  {
    "substance": "Cu complex of KGHK-Rev, KGHKTRQARRNRRRRWRERQR-NH2 [Cu-KGHK-Rev]",
    "value reported": 8.89
  },
  {
    "substance": "Cu complex of DOTA coupled to K-Rev, Ac-KTRQARRNRRRRWRERQR-NH2 [Cu-DOTA-Rev]",
    "value reported": 9.40
  },
  {
    "substance": "Cu complex of GGH-Rev, GGHTRQARRNRRRRWRERQR-NH2 [Cu-GGH-Rev]",
    "value reported": 8.34
  }
]
